- tested on: Full-length (FL)-PRMT5-MEP50 enzyme complex (Homo sapiens (Human), UniProt O14744)
- Sequence (O14744 whole entry): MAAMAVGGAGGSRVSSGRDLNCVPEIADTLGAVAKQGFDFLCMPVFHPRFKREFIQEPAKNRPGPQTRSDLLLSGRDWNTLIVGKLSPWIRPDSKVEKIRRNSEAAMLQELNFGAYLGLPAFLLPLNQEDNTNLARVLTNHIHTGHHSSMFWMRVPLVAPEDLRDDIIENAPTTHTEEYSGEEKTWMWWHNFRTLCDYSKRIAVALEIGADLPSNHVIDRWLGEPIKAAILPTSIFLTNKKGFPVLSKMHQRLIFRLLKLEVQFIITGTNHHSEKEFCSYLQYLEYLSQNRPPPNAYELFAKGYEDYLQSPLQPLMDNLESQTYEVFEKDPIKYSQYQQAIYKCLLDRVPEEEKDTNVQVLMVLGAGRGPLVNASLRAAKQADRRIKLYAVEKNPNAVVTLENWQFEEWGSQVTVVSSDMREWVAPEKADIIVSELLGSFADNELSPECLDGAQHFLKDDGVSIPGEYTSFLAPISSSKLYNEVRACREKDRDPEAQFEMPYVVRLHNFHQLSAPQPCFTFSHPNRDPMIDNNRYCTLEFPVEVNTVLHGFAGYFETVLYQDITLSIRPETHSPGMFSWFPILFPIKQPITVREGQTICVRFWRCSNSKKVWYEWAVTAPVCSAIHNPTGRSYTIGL
- Sequence (Q9BQA1 whole entry partner): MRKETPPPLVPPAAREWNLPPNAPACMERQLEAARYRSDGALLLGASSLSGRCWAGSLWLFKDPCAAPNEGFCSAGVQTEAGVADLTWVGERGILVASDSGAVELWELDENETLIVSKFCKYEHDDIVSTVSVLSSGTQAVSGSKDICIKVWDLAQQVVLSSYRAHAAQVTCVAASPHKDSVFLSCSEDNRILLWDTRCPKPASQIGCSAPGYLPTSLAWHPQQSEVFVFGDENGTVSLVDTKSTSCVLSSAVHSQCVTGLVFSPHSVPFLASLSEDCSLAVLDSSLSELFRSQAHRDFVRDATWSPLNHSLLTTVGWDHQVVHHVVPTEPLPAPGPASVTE
- assay explanation: PRMT5-MEP50 Enzyme Methylation Assay (SAMDI)
- Format: biochemical
- run conditions: Enzyme Methylation Assay (EC50—1, nM), first EC50 of biphasic fit; 0.5 nM PRMT5-MEP50, 75 nM biotinylated H4R3(Me1) peptide, 15 μM SAM, 150 minutes at 37° C.
quantity kind: EC50 (nM)
# value in nM; strip the unit string

Take a look at these entries with their results.
compound	quantity kind	unit name	measured result
O=C(NC[C@@H](O)[C@@H]1Cc2ccc(C(F)F)cc2CN1)c1ccc(C(=O)N2C3CCC2COC3)cc1	EC50	nM	0.93
CCOc1cc(C(=O)N2C3CCC2COC3)ccc1C(=O)NC[C@@H](O)[C@@H]1Cc2ccccc2CN1C [Example 3, 2,2,2-trifluoroacetate]	EC50	nM	47
CCOc1cc(C(=O)N2C3CCC2COC3)ccc1C(=O)NC[C@@H](O)[C@@H]1Cc2ccc(OC)cc2CN1	EC50	nM	0.27

Okay, now this compound:
Give EC50 for the following compound: "COc1ccc2c(c1)CN[C@H]([C@H](O)CNC(=O)c1ccc(C(=O)N3C4CCC3COC4)cc1)C2"
0.62
